src = patent US6686371B2

MEASURE: melting point

Consider the worked cases shown below.
In [3]: df
Out[3]:
                                   compound        measure         result
0  Cc1c2c(cc3ccc(O)cc13)-c1ccc(O)cc1C2 [Compound 67d]  melting point         265 °C
1  CCCc1c2c(c(Cl)c3ccc(O)cc13)-c1ccc(O)cc1C2  melting point  223 to 224 °C
2  CC1c2cc(O)ccc2-c2c1cc1cc(O)ccc1c2Cl (centres unmarked)  melting point  215 to 220 °C
3  CCc1c2c(c(Cl)c3ccc(O)cc13)-c1ccc(O)cc1C2  melting point  250 to 251 °C

Give the measured melting point of CCc1c2c(c(CC)c3ccc(O)cc13)-c1ccc(O)cc1C2 . 255 °C (dec.)

----------
Target: human estrogen receptor β receptor (hERβ) (Homo sapiens, UniProt Q92731)
Construct: expressed in transfected cells; host or cells: Chinese hamster ovary (CHO) cells, stably co-transfected with hERβ, rat oxytocin promoter and luciferase reporter
Sequence (Q92731 whole entry): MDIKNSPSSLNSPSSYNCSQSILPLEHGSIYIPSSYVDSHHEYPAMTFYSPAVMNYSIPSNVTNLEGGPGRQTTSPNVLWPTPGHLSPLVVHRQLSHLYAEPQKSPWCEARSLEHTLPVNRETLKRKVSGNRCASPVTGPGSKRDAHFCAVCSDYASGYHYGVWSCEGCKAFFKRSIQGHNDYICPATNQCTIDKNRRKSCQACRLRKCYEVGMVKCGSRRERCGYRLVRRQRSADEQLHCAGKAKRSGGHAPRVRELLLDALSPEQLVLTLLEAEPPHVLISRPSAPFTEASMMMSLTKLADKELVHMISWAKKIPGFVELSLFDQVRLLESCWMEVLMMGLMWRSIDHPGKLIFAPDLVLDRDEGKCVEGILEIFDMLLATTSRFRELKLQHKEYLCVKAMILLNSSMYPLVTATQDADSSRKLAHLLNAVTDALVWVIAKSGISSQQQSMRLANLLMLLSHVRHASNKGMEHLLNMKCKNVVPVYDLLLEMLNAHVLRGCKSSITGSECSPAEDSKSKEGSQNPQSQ
Test: competitive binding to cytoplasmic human estrogen receptor β from recombinant CHO cells
Settings: % relative to 17β-estradiol; cytosol of recombinant CHO cells; Table 2
MEASURE: Binding ERβ

Consider the worked cases shown below.
In [3]: df
Out[3]:
                            smiles_entry                           measured_target      measure                 result
0   Oc1ccc2c(c1)Cc1cc3cc(O)ccc3c(Cl)c1-2  human estrogen receptor β receptor (hERβ) (Homo sapiens, UniProt Q92731)  Binding ERβ             ++++ (>8%)
1     Oc1ccc2c(c1)Cc1c-2nc2ccc(O)cc2c1Br  human estrogen receptor β receptor (hERβ) (Homo sapiens, UniProt Q92731)  Binding ERβ  ++ (between 1.5-3.5%)
2  Oc1ccc2nc3c(c(Cl)c2c1)-c1cccc(O)c1CC3  human estrogen receptor β receptor (hERβ) (Homo sapiens, UniProt Q92731)  Binding ERβ  ++ (between 1.5-3.5%)
3    Oc1ccc2c(c1)CCc1c-2nc2ccc(O)cc2c1Cl  human estrogen receptor β receptor (hERβ) (Homo sapiens, UniProt Q92731)  Binding ERβ             ++++ (>8%)

Give the measured Binding ERβ of Cc1c(O)ccc2c1Cc1c-2nc2ccc(O)cc2c1Cl . ++ (between 1.5-3.5%)

----------
Target: human estrogen receptor β receptor (hERβ) (Homo sapiens)
Construct: expressed in transfected cells; host or cells: Chinese hamster ovary (CHO) cells, stably co-transfected with hERβ, rat oxytocin promoter and luciferase reporter
Experiment: transactivation assay, estrogenic activity, recombinant CHO cells co-transfected with hERβ, rat oxytocin promoter and luciferase reporter
Assay type: cell-based
Settings: potency % relative to 17β-estradiol; CHO cells, hERβ, luciferase reporter
MEASURE: ERβ Transactivation (Potency Transactivation (ERβ))

                                   compound              result
0  Oc1ccc2c(c1)Cc1c-2cc2ccc(O)cc2c1C(F)(F)F [Compound 67e]  ++ (between 4-10%)
1  Cc1c2c(cc3ccc(O)cc13)-c1ccc(O)cc1C2 [Compound 67d]  + (between 0.1-4%)
2  Oc1ccc2c(c1)Cc1cc3cc(O)ccc3cc1-2 [Compound 69, 2,8-dihydroxy-11H-benzo[b]fluorene]  + (between 0.1-4%)
3  COc1ccc2c(c1)Cc1c-2nc2ccc(OC)cc2c1Cl [Compound 2a]  ++ (between 4-10%)
